Hi! I'm sharing some pIC50 results obtained with CDK5 (Homo sapiens (Human), UniProt Q00535).
Sequence (Q00535 whole entry): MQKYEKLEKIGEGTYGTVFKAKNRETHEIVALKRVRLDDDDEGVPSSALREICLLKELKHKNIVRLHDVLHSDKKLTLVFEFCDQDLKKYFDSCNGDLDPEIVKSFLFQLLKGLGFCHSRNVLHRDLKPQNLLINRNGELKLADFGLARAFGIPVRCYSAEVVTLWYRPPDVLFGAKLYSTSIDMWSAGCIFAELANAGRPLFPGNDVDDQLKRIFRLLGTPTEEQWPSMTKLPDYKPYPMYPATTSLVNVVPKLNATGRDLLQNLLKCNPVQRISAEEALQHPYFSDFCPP
Sequence (Q15078 whole entry partner): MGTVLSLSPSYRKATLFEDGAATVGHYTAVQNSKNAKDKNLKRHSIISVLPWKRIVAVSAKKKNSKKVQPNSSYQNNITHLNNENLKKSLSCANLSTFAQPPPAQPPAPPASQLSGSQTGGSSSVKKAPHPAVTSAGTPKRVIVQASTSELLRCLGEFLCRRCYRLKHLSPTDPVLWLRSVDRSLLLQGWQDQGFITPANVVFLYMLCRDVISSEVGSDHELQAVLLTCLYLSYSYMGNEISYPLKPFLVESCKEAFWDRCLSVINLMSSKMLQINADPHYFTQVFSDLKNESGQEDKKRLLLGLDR
pIC50: −log10 of the molar value.
Observation Type: pIC50

CNC(=O)c1ccc(Nc2ncc3cc4n(c3n2)C2(CCCCC2)C(=O)NN4)cc1    7.19

[P] CN(C)C(=O)c1ccc(Nc2ncc3cc4n(c3n2)C2(CCCCC2)C(=O)NN4)cc1
[Q] CN1CCN(C(=O)c2ccc(Nc3ncc4cc5n(c4n3)C3(CCCCC3)C(=O)NN5)cc2)CC1
Which gives the smaller pIC50 number: P or Q ? In your reply, give the label of the chosen option.
P

###

Hi! I'm sharing some IC50 results obtained with UniProt:Q00535.
Observation Type: IC50 (nM)

[1] CC1C(=O)N(C)c2cc3cnc(Nc4ccc(S(N)(=O)=O)cc4)nc3n2C12CCCCC2 (stereo not shown)
[2] O=C(c1ccc(Nc2ncc3cc4n(c3n2)C2(CCCCC2)C(=O)NN4)cc1)N1CCNCC1
[3] CN1N=CC2(CCCCC2)n2c1cc1cnc(Nc3ccc(S(N)(=O)=O)cc3)nc12
[4] C[C@@H]1NC(=O)C2(CCCCC2)n2c1cc1cnc(Nc3ccc(S(N)(=O)=O)cc3)nc12
Kindly provide a descending ordering of the above compounds based on their IC50. Give me the labels in the order the question wants.
2, 4, 3, 1
(2: 72 nM, 4: 50 nM, 3: 30 nM, 1: 15 nM)
